target: MICA*002 (Homo sapiens, UniProt Q29983, K148E/T47A/W37G); type: binding
Sequence (Q29983 24-307 W37G/T47A/K148E): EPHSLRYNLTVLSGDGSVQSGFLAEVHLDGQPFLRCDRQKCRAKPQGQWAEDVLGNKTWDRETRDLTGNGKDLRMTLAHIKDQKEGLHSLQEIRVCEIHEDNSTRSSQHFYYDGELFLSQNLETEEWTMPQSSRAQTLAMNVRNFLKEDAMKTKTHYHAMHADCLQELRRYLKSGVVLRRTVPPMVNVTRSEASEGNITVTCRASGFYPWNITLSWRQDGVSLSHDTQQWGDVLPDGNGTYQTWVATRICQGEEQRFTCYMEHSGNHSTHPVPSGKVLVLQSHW
property name: binding to MICA variant (ELISA)

{"molecule": "E9: VHH specific for MICA, SEQ ID NO: 23 (protein) VHH: MAQVQLVETGGGLVQPGGSLRLSCAASGFTLEHYAIGWFRQAPGKEQEGVSCITSDGDTYYADSVKGRFTISRDNAKNTVYLQMNSLKPEDTAVYYCAADCLSSNWRTSAYWAQGTQVTVSSGGLPETGGHHHHHH", "property name": "binding to MICA variant (ELISA)", "obs value": "not observed to bind"}
{"molecule": "A1: VHH specific for MICA, SEQ ID NO: 19 (protein) VHH: MAQVQLVESGGGLVQPGGSLRLSCAASGFTLDYYDIGWFRQAPGKEREGVSCITSSDGSTYYADSVKGRFTISRDNAKNTVYLQMNSLKPEDTAVYYCAADCTKPQWKSKTEAWGQGTQVTVSSGGLPETGGHHHHHH", "property name": "binding to MICA variant (ELISA)", "obs value": "not observed to bind"}
{"molecule": "B11: VHH specific for MICA, SEQ ID NO: 20 (protein) VHH: MAQVQLVETGGGLVQPGGSLRLSCAASGFTLDYYAIGWFRQAPGKEREGVSCITSDGNTYYADSVKGRFTISRDNAKNTVYLQMNSLKPEDTAVYYCAADCLSSTWRTNAYLGQGTQVTVSSGGLPETGGHHHHHH", "property name": "binding to MICA variant (ELISA)", "obs value": "not observed to bind"}
